Test system: HEK-293T
Assay: Multiplex assay against HEK293T
Type: toxicity, cell-based
Conditions: human, 48 h, 1 µM, compound concentration 1 uM, number of replicates 2
Listing of entries alongside the reported Population Mitochondria Different-Phenotype (%).
outcome measure: Population Mitochondria Different-Phenotype (%)

# molecule, assayed system, measured
rows = [
    ("Cc1c(C(=O)Nc2ccc(N3C[C@@H](C)O[C@@H](C)C3)nc2)cccc1-c1ccc(OC(F)(F)F)cc1 [SONIDEGIB]", "HEK-293T", 0),
    ("CN(C)CC#Cc1ccc2[nH]c3c(c2c1)-c1nc(N)ncc1CCC3", "HEK-293T", 0),
    ("CCn1c(-c2nonc2N)nc2cncc(C(=O)N3CC[C@H](N)C3)c21.Cl", "HEK-293T", 0),
    ("CC(C)N(CCCCOCC(=O)NS(C)(=O)=O)c1cnc(-c2ccccc2)c(-c2ccccc2)n1 [SELEXIPAG]", "HEK-293T", 0),
    ("CN(C)[C@H]1CC[C@H](Nc2ncc3ncnc(Nc4ccc(F)c(Cl)c4)c3n2)CC1", "HEK-293T", 0),
    ("CN[C@@H]1CC[C@@H](c2ccc(Cl)c(Cl)c2)c2ccccc21.Cl", "HEK-293T", 1),
    ("Cc1ccc(C(=O)Nc2cc(N3CCN(C)CC3)cc(C(F)(F)F)c2)cc1-n1cc(-c2cnn(C)c2C)nn1.Cl", "HEK-293T", 1),
    ("CC1=C(C)C(=O)C(C(C)(C)CC(=O)N(CCCCSC[C@H]2O[C@@H](n3cnc4c(N)ncnc43)[C@H](O)[C@@H]2O)Cc2cccc(-c3ccc(Cl)cc3)c2)=C(C)C1=O", "HEK-293T", 0),
]
